Data origin: patent EP2970215B1

target: human GlyT1c transporter (Homo sapiens); construct: expressed in transfected cells; host or cells: CHO cells (recombinant; line hGlyT1c_5_CHO is named for the uptake assay); experiment: Radioligand binding assay using recombinant CHO cell membranes expressing human GlyT1; conditions: radioligand binding to human GlyT1c transporter-expressing membranes
property name: Ki

- Cn1cnc(S(=O)(=O)N2C[C@@H](Nc3ccc4cccnc4c3)[C@H](c3ccccc3)C2)c1 (relative stereo): ≤ 10 µM
- Cn1cnc(S(=O)(=O)N2C[C@@H](Nc3cc(F)c(F)c(Cl)c3)[C@H](c3ccc(F)cc3)C2)c1 (relative stereo): ≤ 1 µM
- COCCN[C@H]1CN(S(=O)(=O)c2cn(C)cn2)C[C@@H]1c1ccccc1: ≤ 10 µM
- Cn1cnc(S(=O)(=O)N2C[C@@H](NCc3ccccc3C(F)(F)F)[C@H](c3ccc(F)cc3)C2)c1 (relative stereo): ≤ 1 µM
- CCCNC[C@@H]1CN(S(=O)(=O)c2cn(C)cn2)C[C@H]1c1ccc(F)cc1 (relative stereo): ≤ 10 µM
- CCS(=O)(=O)N1C[C@@H](Nc2cccc(C#N)c2)[C@H](c2ccccc2)C1 (relative stereo): > 10 µM
- Cn1cnc(S(=O)(=O)N2C[C@H](Nc3ccc4c(c3)CCO4)[C@@H](c3ccccc3)C2)c1: ≤ 1 µM

====

biological target: human GlyT1c transporter (Homo sapiens, UniProt P48067); construct: expressed in transfected cells; host or cells: CHO cells (recombinant; line hGlyT1c_5_CHO is named for the uptake assay); experiment: Radioligand binding assay using recombinant CHO cell membranes expressing human GlyT1; details: radioligand binding, recombinant CHO cell membranes expressing human GlyT1c
pKi: −log10 of the molar value.
property name: pKi

* Cn1cnc(S(=O)(=O)N2C[C@@H](Nc3ccc(Cl)c(C(F)(F)F)c3)[C@H](C3CCOC3)C2)c1 (relative stereo) | ≥ 5.00
* Cn1cnc(S(=O)(=O)N2C[C@@H](Nc3cc(C(F)(F)F)c(Cl)cn3)[C@H](C3CCCO3)C2)c1 (relative stereo) | ≥ 6.00
* Cn1cnc(S(=O)(=O)N2C[C@@H](OCCNCC(F)(F)F)[C@H](c3ccc(F)cc3)C2)c1 (relative stereo) | ≥ 6.00
* Cn1cnc(S(=O)(=O)N2CC(Nc3ccc(F)c(Cl)c3)C([C@@H]3CCCO3)C2)c1 (stereo partly shown) | ≥ 6.00
* Cn1cnc(S(=O)(=O)N2CC(Cc3cc(C(F)(F)F)ccn3)C(c3ccccc3)C2)c1 (stereo not shown) | ≥ 6.00
* CC(C)c1ccnc(N[C@H]2CN(S(=O)(=O)c3cn(C)cn3)C[C@@H]2c2ccccc2)c1 | ≥ 7.00
* Cn1cnc(S(=O)(=O)N2C[C@@H](Nc3cccc(Cl)c3)[C@H](C3CCCCO3)C2)c1 (relative stereo) | ≥ 7.00

====

biological target: human GlyT1c transporter (Homo sapiens, UniProt P48067); construct: expressed in transfected cells; host or cells: CHO cells (recombinant; line hGlyT1c_5_CHO is named for the uptake assay); assay: Radioligand binding assay using recombinant CHO cell membranes expressing human GlyT1; details: radioligand binding to human GlyT1c transporter-expressing membranes
pKi: −log10 of the molar value.
property name: pKi

• Cc1csc(CN[C@H]2CN(S(=O)(=O)c3cn(C)cn3)C[C@@H]2c2ccccc2)n1 = ≥ 5.00
• COc1cc(N[C@H]2CN(S(=O)(=O)c3cn(C)cn3)C[C@@H]2c2ccccc2)ncn1 = ≥ 5.00
• Cn1cnc(S(=O)(=O)N2C[C@@H](Nc3ccnc(F)c3)[C@H](c3ccccc3)C2)c1 (relative stereo) = ≥ 5.00
• Cn1cnc(S(=O)(=O)N2C[C@@H](Nc3cccc(C(F)(F)F)c3)[C@H](c3cccc(F)c3)C2)c1 (relative stereo) = ≥ 7.00
• CCCCNC[C@@H]1CN(S(=O)(=O)c2cn(C)cn2)C[C@H]1c1ccc(F)cc1 (relative stereo) = ≥ 5.00
• Cn1cnc(S(=O)(=O)N2C[C@@H](Nc3cncc(F)c3)[C@H](c3ccccc3)C2)c1 (relative stereo) = ≥ 5.00
• Cn1cnc(S(=O)(=O)N2C[C@@H](C(=O)Nc3cccc(C#N)c3)[C@H](c3ccc(F)cc3)C2)c1 (relative stereo) = ≥ 5.00
• Cn1cnc(S(=O)(=O)N2C[C@@H]([C@@H]3CCCOC3)[C@H](Nc3ccc(F)c(C(F)(F)F)c3)C2)c1 (mixture of isomers) = ≥ 6.00
• Cn1cnc(S(=O)(=O)N2C[C@H](NCCC3CC3)[C@@H](c3ccccc3)C2)c1 = ≥ 6.00
• Cn1cnc(S(=O)(=O)N2C[C@@H](Nc3ccc(Cl)c(Cl)c3)[C@H](c3cccc(F)c3)C2)c1 (relative stereo) = ≥ 6.00
• Cn1cnc(S(=O)(=O)N2C[C@H](NC(=O)CCCC(F)(F)F)[C@@H](c3ccc(F)cc3)C2)c1 = ≥ 6.00
• Cc1nc(S(=O)(=O)N2C[C@H](Nc3ccc(F)c(C(F)(F)F)c3)[C@@H](c3ccc(F)cc3)C2)cn1C = ≥ 5.00
• Cn1cnc(S(=O)(=O)N2C[C@H](NCCCC(F)(F)F)[C@@H](c3ccccc3)C2)c1 = ≥ 6.00
• Cn1cnc(S(=O)(=O)N2C[C@@H](Nc3ccncc3)[C@H](c3ccccc3)C2)c1 (relative stereo) = ≥ 5.00

====

Target: human GlyT1c transporter (Homo sapiens, UniProt P48067)
Construct: expressed in transfected cells; host or cells: CHO cells (recombinant; line hGlyT1c_5_CHO is named for the uptake assay)
Sequence (P48067 1-706): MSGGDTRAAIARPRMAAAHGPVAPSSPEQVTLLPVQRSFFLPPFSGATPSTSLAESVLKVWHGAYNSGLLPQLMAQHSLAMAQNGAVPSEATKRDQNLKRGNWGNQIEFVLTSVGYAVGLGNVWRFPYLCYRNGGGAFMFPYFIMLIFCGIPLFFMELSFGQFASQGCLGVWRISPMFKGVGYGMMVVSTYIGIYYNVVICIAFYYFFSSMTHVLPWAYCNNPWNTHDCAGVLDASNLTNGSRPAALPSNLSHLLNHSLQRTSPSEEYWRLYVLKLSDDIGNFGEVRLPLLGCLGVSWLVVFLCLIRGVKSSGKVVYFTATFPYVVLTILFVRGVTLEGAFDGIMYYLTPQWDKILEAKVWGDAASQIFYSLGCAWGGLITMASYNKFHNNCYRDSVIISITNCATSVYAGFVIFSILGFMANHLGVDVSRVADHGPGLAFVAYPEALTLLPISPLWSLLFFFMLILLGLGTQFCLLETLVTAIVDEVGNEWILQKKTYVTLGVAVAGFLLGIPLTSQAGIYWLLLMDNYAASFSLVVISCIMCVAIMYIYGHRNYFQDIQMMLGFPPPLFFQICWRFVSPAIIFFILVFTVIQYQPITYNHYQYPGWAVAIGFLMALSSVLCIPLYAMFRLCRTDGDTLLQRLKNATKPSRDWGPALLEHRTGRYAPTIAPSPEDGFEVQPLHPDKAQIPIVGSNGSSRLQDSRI
Assay: Radioligand binding assay using recombinant CHO cell membranes expressing human GlyT1
Settings: radioligand binding to human GlyT1c transporter-expressing membranes
property name: Ki

- CC(CCN[C@H]1CN(S(=O)(=O)c2cn(C)cn2)C[C@@H]1c1ccccc1)CC(C)(C)C (stereo partly drawn): ≤ 1 µM
- Cn1cnc(S(=O)(=O)N2C[C@@H](C(=O)NCc3ccc(Cl)cc3)[C@H](c3ccc(F)cc3)C2)c1 (relative stereo): ≤ 1 µM
- CCCS(=O)(=O)N1C[C@@H](NC(=O)c2cc(Cl)cc(Cl)c2)[C@H](c2ccccc2)C1 (relative stereo): ≤ 10 µM
- Cn1cnc(S(=O)(=O)N2C[C@@H](C(=O)c3ccc(F)c(F)c3)[C@H](c3ccc(F)cc3)C2)c1 (relative stereo): ≤ 1 µM
- COc1ccc(S(=O)(=O)N2C[C@@H](NC(=O)c3cccc(C(F)(F)F)c3Cl)[C@H](c3ccccc3)C2)cc1 (relative stereo): ≤ 10 µM
- Cn1cnc(S(=O)(=O)N2C[C@@H](NC(=O)c3cccc(C#N)c3)[C@H](c3ccccc3)C2)c1 (relative stereo): ≤ 10 µM
- Cn1cnc(S(=O)(=O)N2C[C@@H](Nc3cccc(C(F)(F)F)n3)[C@H](c3ccccc3)C2)c1 (relative stereo): ≤ 10 µM
- Cn1cnc(S(=O)(=O)N2C[C@@H](Nc3ccnc(C(F)(F)F)c3)[C@H](c3ccccc3F)C2)c1 (relative stereo): ≤ 0.1 µM
- Cn1cnc(S(=O)(=O)N2C[C@@H](NCc3cccc(C(F)(F)F)c3)[C@H](c3ccc(F)cc3)C2)c1 (relative stereo): ≤ 1 µM
- Cc1cc(N[C@H]2CN(S(=O)(=O)c3cn(C)cn3)C[C@@H]2c2ccc(F)cc2)ccc1Cl: ≤ 0.1 µM
- Cn1cnc(S(=O)(=O)N2C[C@H](NCc3ccnc(Cl)c3F)[C@@H](c3ccccc3)C2)c1: ≤ 1 µM
- Cc1nc(S(=O)(=O)N2C[C@H](Nc3cc(C(F)(F)F)c(Cl)cn3)[C@@H](c3ccc(F)cc3)C2)cn1C: > 10 µM
- Cc1cc2c(cc1S(=O)(=O)N1CC(Nc3ccc(F)c(F)c3)C(c3ccccc3)C1)OCC(=O)N2 (stereo not drawn): ≤ 10 µM
- Cn1cnc(S(=O)(=O)N2C[C@H](NCc3nc4c(s3)CCCC4)[C@@H](c3ccccc3)C2)c1: ≤ 1 µM
- Cn1cnc(S(=O)(=O)N2C[C@H](Nc3ccc4sccc4c3)[C@@H](c3ccccc3)C2)c1: ≤ 1 µM
- CC(=O)CCCC(=O)N[C@H]1CN(S(=O)(=O)c2cn(C)cn2)C[C@@H]1c1ccc(F)cc1: ≤ 10 µM
- Cn1cnc(S(=O)(=O)N2C[C@@H](NCc3ccc(C(F)(F)F)c(Cl)c3)[C@H](c3ccc(F)cc3)C2)c1 (relative stereo): ≤ 0.1 µM
- Cn1cnc(S(=O)(=O)N2C[C@H](NCc3cc(Cl)ccc3OC(F)F)[C@@H](c3ccccc3)C2)c1: ≤ 1 µM
- Cn1cnc(S(=O)(=O)N2C[C@@H](Nc3cc(F)ccc3F)[C@H](c3ccc(F)cc3)C2)c1 (relative stereo): ≤ 10 µM
- COc1ccc(S(=O)(=O)N2C[C@@H](NC(=O)c3ccc(C(F)(F)F)cc3)[C@H](c3ccccc3)C2)cc1 (relative stereo): ≤ 10 µM
- Cn1cnc(S(=O)(=O)N2C[C@@H](COc3ccccc3)[C@H](c3ccc(F)cc3)C2)c1 (relative stereo): ≤ 0.1 µM
- Cn1cnc(S(=O)(=O)N2C[C@@H](Nc3ccncc3)[C@H](c3ccc(F)cc3)C2)c1 (relative stereo): ≤ 10 µM
- Cn1cnc(S(=O)(=O)N2C[C@@H](Nc3cccc(F)c3)[C@H](c3ncccc3F)C2)c1 (relative stereo): ≤ 1 µM
- Cn1cnc(S(=O)(=O)N2C[C@H](Nc3cccc(C(C)(O)C(F)(F)F)c3)[C@@H](c3ccc(F)cc3)C2)c1 (stereo partly drawn): ≤ 0.1 µM
- Cn1cnc(S(=O)(=O)N2C[C@H](NCCCCC(F)(F)F)[C@@H](c3ccc(F)cc3)C2)c1: ≤ 0.1 µM
- CC(=O)CCC(=O)N[C@H]1CN(S(=O)(=O)c2cn(C)cn2)C[C@@H]1c1ccc(F)cc1: > 10 µM
- CCCn1cc([C@H]2CN(S(=O)(=O)c3cn(C)cn3)C[C@@H]2c2ccc(F)cc2)nn1: ≤ 1 µM
